Species on record: Homo sapiens
Test: Selectivity index, ratio of IC50 for human JAK2 to IC50 for human JAK1
readout.kind: Ratio IC50
Answers are plain numbers.

Ask | Output Ratio IC50 of `CC(C)COC(=O)N1C[C@H](N(C)c2ncnc3[nH]ccc23)C2(CC2)C1`
Reply | 35

Lab note: each molecule below needs its Ratio IC50 filled in.
1. CN(c1ncnc2[nH]ccc12)[C@H]1CN(C(=O)NC2CCCCC2)CC12CC2
2. CN(c1ncnc2[nH]ccc12)[C@H]1CN(C(=S)Nc2cc(C(F)(F)F)cc(C(F)(F)F)c2)CC12CC2
3. CN(c1ncnc2[nH]ccc12)[C@H]1CN(C(=O)c2ccco2)CC12CC2
4. CCCCN1C[C@H](N(C)c2ncnc3[nH]ccc23)C2(CC2)C1
5. CN(c1ncnc2[nH]ccc12)[C@H]1CN(C(=O)Nc2ccccc2-c2ccccc2)CC12CC2
6. CN(c1ncnc2[nH]ccc12)[C@H]1CN(C(=O)c2ccc(C#N)cc2)CC12CC2

Reply |
1: 64; 2: 23; 3: 18; 4: 65; 5: 6.1; 6: 24

----------
Species on record: Homo sapiens
Assay: Selectivity index, ratio of IC50 for human JAK2 to IC50 for human JAK1
Assign Ratio IC50 to each entry below.

In the examples that follow, each entry is paired with its recorded Ratio IC50.
Ask | Name the recorded Ratio IC50 of the compound listed here: `CN(c1ncnc2[nH]ccc12)[C@H]1CN(S(=O)(=O)c2ccc(C(F)(F)F)cc2)CC12CC2`
Reply | 88

Ask | Given the compound `CN(c1ncnc2[nH]ccc12)[C@H]1CN(S(=O)(=O)c2cccc([N+](=O)[O-])c2)CC12CC2` , write its reported Ratio IC50.
Reply | 3.9

Ask | Read the entry `CN(c1ncnc2[nH]ccc12)[C@H]1CN(C(=O)CC#N)CC12CC2` and write its reported Ratio IC50.
Reply | 48

Ask | Entry `CC(=O)NCC(=O)N1C[C@H](N(C)c2ncnc3[nH]ccc23)C2(CC2)C1` needs its Ratio IC50 filled in; supply it.
Reply | 31

Ask | Output measured Ratio IC50 for this item: `CN(c1ncnc2[nH]ccc12)[C@H]1CN(C(=O)Nc2ccc(Cl)cc2Cl)CC12CC2`
Reply | 39

More entries:
Ask | Assign Ratio IC50 to the following record: `CCN1C[C@H](N(C)c2ncnc3[nH]ccc23)C2(CC2)C1`
Reply | 21
